B1: INTS3 (parent)
chain: AQLQALRQKEVDFCISLLRERFME

variants of: B1; experiment: protein stability index of a GFP-peptide fusion (GPS, HEK-293T) (PSI 1-6); higher = more stable; conditions: c terminus: a fixed tail appended;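 note: lentivirally expressed fusions sorted by FACS into six bins by GFP to DsRed ratio, PSI derived from sequencing read proportions per bin multiplied by bin number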
quantity_name: protein stability index
Give a plain numeric answer without units written out.

Would you mind telling me what protein stability index value was observed for `K9Y` ?
3.51

Would you mind telling me what protein stability index value was observed for `F22R` ?
2.1

Would you mind telling me what protein stability index value was observed for `K9G` ?
2.51

Would you mind telling me what protein stability index value was observed for `R19S` ?
3.43

Would you mind telling me what protein stability index value was observed for `Q8H` ?
3.1

Would you mind telling me what protein stability index value was observed for `L6E` ?
1.52

Would you mind telling me what protein stability index value was observed for `F22N` ?
1.69

Would you mind telling me what protein stability index value was observed for `I15R` ?
1.71

Would you mind telling me what protein stability index value was observed for `F22G` ?
1.17

Would you mind telling me what protein stability index value was observed for `E24M` ?
4.47

Would you mind telling me what protein stability index value was observed for `Q4I` ?
3.2

Would you mind telling me what protein stability index value was observed for `E10W` ?
1.53

Would you mind telling me what protein stability index value was observed for `M23D` ?
1.95

Would you mind telling me what protein stability index value was observed for `L18T` ?
2.24

Would you mind telling me what protein stability index value was observed for `R7Y` ?
3.17

Would you mind telling me what protein stability index value was observed for `R7Q` ?
2.73
